assay: Pharmacokinetics of transdermally delivered treprostinil from reservoir-type patch; settings: Göttingen, minipig, in vivo, topical or ocular; four patches, total 160 mg treprostinil, in place 72 hr, two male minipigs
Endpoint label: Cmax

Query string: Look at this compound and give its reported Cmax. CCCCC[C@H](O)CC[C@@H]1[C@H]2Cc3cccc(OCC(=O)O)c3C[C@H]2C[C@H]1O [Treprostinil]
Result string: 20.8 to 27.6 ng/mL

====

assay: Pharmacokinetics of transdermally delivered treprostinil from reservoir-type patch; conditions: Göttingen, minipig, in vivo, topical or ocular; four patches, total 160 mg treprostinil, in place 72 hr, two male minipigs
Endpoint label: Tmax
Give me the value, and tack the unit on after it.

Query string: Look at this molecule and give its reported Tmax. CCCCC[C@H](O)CC[C@@H]1[C@H]2Cc3cccc(OCC(=O)O)c3C[C@H]2C[C@H]1O
Result string: 6 h

====

experiment: Pharmacokinetics of transdermally delivered treprostinil from reservoir-type patch; conditions: Göttingen, minipig, in vivo, other: transdermal (reservoir-type patch); four patches, total 160 mg treprostinil, in place 72 hr, two male minipigs; read-out: C72 hr
Endpoint label: concentration at 72 hr

Query string: Look at this compound and give its reported concentration at 72 hr. CCCCC[C@H](O)CC[C@@H]1[C@H]2Cc3cccc(OCC(=O)O)c3C[C@H]2C[C@H]1O [Treprostinil]
Result string: 2.4 to 4.9 ng/mL

====

test: Pharmacokinetics of transdermally delivered treprostinil from reservoir-type patch; details: Göttingen, minipig, in vivo, topical or ocular; four patches, total 160 mg treprostinil, in place 72 hr, two male minipigs; read-out: AUC0-72
Endpoint label: AUC(0-t)

Query string: Look at this compound and give its reported AUC(0-t). CCCCC[C@H](O)CC[C@@H]1[C@H]2Cc3cccc(OCC(=O)O)c3C[C@H]2C[C@H]1O [Treprostinil]
Result string: 429 to 946 ng·h/mL
